Here the recorded IC50 (inhibition of eclosion) is given for each entry.
- System: Aedes aegypti L
- ASSAY METHOD TEXT: Aedes test (same test as for Culex)
- Format: in vivo
- TEST SETTINGS: Table I, mature larvae, loss of 50% of test animals, read-out: IC-50 eclos

{"COMPOUND": "CC(C)=CCC/C(C)=C/COc1ccc(C)nc1", "QUALIFIER OPERATOR": "=", "IC50 (inhibition of eclosion) [µg/mL]": 0.5}
{"COMPOUND": "COC(C)(C)CCCC(C)=CCOc1ccc(C)nc1", "QUALIFIER OPERATOR": "=", "IC50 (inhibition of eclosion) [µg/mL]": 1}
{"COMPOUND": "CCc1ccc(OCC=C(C)CCC2OC2(C)C)cn1 (stereo not shown)", "QUALIFIER OPERATOR": "=", "IC50 (inhibition of eclosion) [µg/mL]": 0.1}
{"COMPOUND": "C/C(=C\\COc1ccc(C)nc1)CCC1OC1(C)C (stereo not shown)", "QUALIFIER OPERATOR": "=", "IC50 (inhibition of eclosion) [µg/mL]": 0.1}
{"COMPOUND": "CCc1ccc(OCC=C(C)CCC2OC2(C)CC)cn1 (stereo not shown)", "QUALIFIER OPERATOR": "=", "IC50 (inhibition of eclosion) [µg/mL]": 0.5}
{"COMPOUND": "CCOC(C)(C)CCCC(C)CCOc1ccc(CC)nc1 (stereo not shown)", "QUALIFIER OPERATOR": "=", "IC50 (inhibition of eclosion) [µg/mL]": 0.5}
{"COMPOUND": "CCc1ccc(OCCC(C)CCC2OC2(C)C)cn1 (stereo not shown)", "QUALIFIER OPERATOR": "<", "IC50 (inhibition of eclosion) [µg/mL]": 1}

----------
- Test system: Culex pipiens L
- ASSAY METHOD TEXT: Culex test (mature larvae, loss of 50% of test animals)
- Format: in vivo
- TEST SETTINGS: Table I, read-out: IC-50 eclos.
Here the recorded IC50 for inhibition of adult emergence (eclosion) is given for each entry.
RECORDED ENDPOINT: IC50 for inhibition of adult emergence (eclosion) (µg/mL)

{"MOLECULE": "CC(C)=CCCC(C)CCOc1cccnc1 (centres unmarked) [Compound 32, 3,7-Dimethyl-1-(3'-pyridyloxy)-6-octene]", "QUALIFIER OPERATOR": "=", "MEASURED RESULT": 0.2}
{"MOLECULE": "CC(C)=CCC/C(C)=C/CNc1cccnc1 [Compound 5]", "QUALIFIER OPERATOR": "=", "MEASURED RESULT": 10}
{"MOLECULE": "CCOC(C)(C)CCC/C(C)=C/COc1ccc(C)nc1 [Compound 3]", "QUALIFIER OPERATOR": "<", "MEASURED RESULT": 10}
{"MOLECULE": "CC(C)=CCC/C(C)=C/COc1ccc(C)nc1 [Compound 1]", "QUALIFIER OPERATOR": "=", "MEASURED RESULT": 0.5}
{"MOLECULE": "CCOC(C)(C)CCCC(C)CCOc1ccc(CC)nc1 (centres unmarked) [Compound 39]", "QUALIFIER OPERATOR": "<", "MEASURED RESULT": 10}

----------
- Test system: Culex pipiens L
- ASSAY METHOD TEXT: Culex test (mature larvae, loss of 50% of test animals)
- Assay type: in vivo
- TEST SETTINGS: Table I, read-out: IC-50 eclos.
RECORDED ENDPOINT: IC50 for inhibition of adult emergence (eclosion) (µg/mL)

{"COMPOUND": "CC(C)=CCCC(C)=CCOc1ccc(C)nc1[N+](=O)[O-]", "QUALIFIER OPERATOR": ">", "MEASURED RESULT": 10}
{"COMPOUND": "COC(C)(C)CCCC(C)=CCOc1ccc(C)nc1", "QUALIFIER OPERATOR": "<", "MEASURED RESULT": 10}
{"COMPOUND": "CC(C)=CCCC(C)CCOc1ccc(C)nc1 (stereo not shown)", "QUALIFIER OPERATOR": "=", "MEASURED RESULT": 0.5}
{"COMPOUND": "CCc1ccc(OCCC(C)CCC2OC2(C)C)cn1 (stereo not shown)", "QUALIFIER OPERATOR": "<", "MEASURED RESULT": 10}
{"COMPOUND": "CC(C)=CCCC(C)=CCOc1ccc(C)nc1CO", "QUALIFIER OPERATOR": ">", "MEASURED RESULT": 10}
{"COMPOUND": "CCOC(C)(C)CCCC(C)=CCOc1ccc(CC)nc1", "QUALIFIER OPERATOR": "<", "MEASURED RESULT": 1}
{"COMPOUND": "CCOC(C)(CC)CCCC(=CCOc1ccc(C)nc1)CC (stereo not shown)", "QUALIFIER OPERATOR": "=", "MEASURED RESULT": 0.5}
{"COMPOUND": "CCc1ccc(OCC=C(C)CCC=C(C)C)cn1", "QUALIFIER OPERATOR": "=", "MEASURED RESULT": 0.05}
{"COMPOUND": "CCc1ccc(OCC=C(C)CCC2OC2(C)CC)cn1 (stereo not shown)", "QUALIFIER OPERATOR": "<", "MEASURED RESULT": 10}
{"COMPOUND": "CCc1ccc(OCC=C(C)CCC2OC2(C)C)cn1 (stereo not shown)", "QUALIFIER OPERATOR": "=", "MEASURED RESULT": 0.005}
